Provide the reported IC50 of each item.
# TARGET ENTITY: Amine oxidase [flavin-containing] A (Homo sapiens, UniProt P21397)
# Sequence (P21397 whole entry): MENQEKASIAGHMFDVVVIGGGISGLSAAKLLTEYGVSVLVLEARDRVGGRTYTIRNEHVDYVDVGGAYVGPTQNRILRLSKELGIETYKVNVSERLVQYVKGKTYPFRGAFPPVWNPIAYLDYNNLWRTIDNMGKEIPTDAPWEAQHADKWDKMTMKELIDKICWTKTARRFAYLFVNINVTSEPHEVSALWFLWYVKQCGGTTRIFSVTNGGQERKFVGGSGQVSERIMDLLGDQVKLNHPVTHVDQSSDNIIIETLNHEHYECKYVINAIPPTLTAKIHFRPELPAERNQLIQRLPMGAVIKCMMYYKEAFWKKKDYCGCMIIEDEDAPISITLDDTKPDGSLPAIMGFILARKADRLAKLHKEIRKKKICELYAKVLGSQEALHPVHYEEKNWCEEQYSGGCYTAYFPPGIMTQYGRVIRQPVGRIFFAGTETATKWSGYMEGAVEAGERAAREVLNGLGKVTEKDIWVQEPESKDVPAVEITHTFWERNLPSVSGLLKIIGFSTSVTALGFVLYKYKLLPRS
# EXPERIMENT SUMMARY: Inhibition of human recombinant MAOA expressed in microsomes of baculovirus-infected insect cell using kynuramine as substrate preincubated for 20 mins followed by protein addition measured after 30 mins by fluorescence assay
Please format your answer as a value with the unit trailing.

Cc1c(C)c2ccc(OCC3CCCN(C)C3)cc2oc1=O.Cl (racemic); 9330 nM
Cc1c(C)c2ccc(OC3CCN(Cc4cccc(Cl)c4)CC3)cc2oc1=O; 870 nM
Cc1c(C)c2ccc(OCC3CCCN(Cc4cccc(Br)c4)C3)cc2oc1=O (single isomer, unassigned; (+)); 540 nM

Let us move to another entry and its IC50.
Report IC50, nothing else, for this compound: Cc1c(C)c2ccc(OCC3CCCN(Cc4cccc(Br)c4)C3)cc2oc1=O (single isomer, unassigned; (-))
1110 nM

Hello, the source for this data is ChEMBL document CHEMBL4425129, in case you need it.
